System: 648629-189-R-J1-PDC complex spheroids viability
protocol: Anticancer human tumor 648629-189-R-J1-PDC patient-derived bladder carcinoma cell line growth inhibition [CLK]
measurementContext: second compound 0.316 µM; first compound 0.000949 µM; stronger effect = lower value
quantityKind: viability, T/C (%)
Report as a plain number; the unit % is understood.

I'd like to know its viability, T/C. The compound in question is CC(C)CC(NC(=O)C(Cc1ccccc1)NC(=O)c1cnccn1)B(O)O (centres undefined) + CNC(=O)c1ccc(Nc2nc(OC3CCCC3)c3c(-c4ccc5nc(C)oc5c4)c[nH]c3n2)c(OC)c1
34.9

Query (compound): C=CC(=O)Nc1cc(Nc2nccc(-c3cn(C)c4ccccc34)n2)c(OC)cc1N(C)CCN(C)C + CNC(=O)c1ccc(Nc2nc(OC3CCCC3)c3c(-c4ccc5nc(C)oc5c4)c[nH]c3n2)c(OC)c1 ; field requested: viability, T/C
27.9

Name the reported viability, T/C value associated with the compound C=CC(=O)Nc1cc(Nc2nccc(-c3cn(C)c4ccccc34)n2)c(OC)cc1N(C)CCN(C)C + CN1CCN(c2cc(C(=O)Nc3cc4cc(-c5cnn(C)c5)ccc4cn3)ccn2)CC1
31.4

Which viability, T/C is listed for CC(C)CC(NC(=O)C(Cc1ccccc1)NC(=O)c1cnccn1)B(O)O (centres undefined) + CN1CCN(c2cc(C(=O)Nc3cc4cc(-c5cnn(C)c5)ccc4cn3)ccn2)CC1 ?
41.5

====

Tested on: 648629-189-R-J1-PDC complex spheroids viability
protocol: Anticancer human tumor 648629-189-R-J1-PDC cell line growth inhibition [CLK];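 also: drug exposure lasted seven days before viability readout; 100% = DMSO vehicle control wells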
measurementContext: second compound 0.0316 µM; first compound 10 µM; stronger effect = lower value
Give measured viability, T/C for each item. Keep answers brief.
Respond with the bare value in %.

Recorded viability, T/C of Nc1ccn(C2OC(CO)C(O)C2(F)F)c(=O)n1 (stereo not drawn) + CNC(=O)c1ccc(Nc2nc(OC3CCCC3)c3c(-c4ccc5nc(C)oc5c4)c[nH]c3n2)c(OC)c1 , please.
6.82

Fill blank: measured viability, T/C of the molecule O=c1[nH]cc(F)c(=O)[nH]1 + CN1CCN(c2cc(C(=O)Nc3cc4cc(-c5cnn(C)c5)ccc4cn3)ccn2)CC1 is ____.
21.9

Can you look up the measured viability, T/C of COc1cccc2c1C(=O)c1c(O)c3c(c(O)c1C2=O)CC(O)(C(=O)CO)CC3OC1CC(N)C(O)C(C)O1 (stereo not drawn) + CN1CCN(c2cc(C(=O)Nc3cc4cc(-c5cnn(C)c5)ccc4cn3)ccn2)CC1 for me?
1.13

====

Provide the reported viability, T/C of each item.
Tested on: 648629-189-R-J1-PDC complex spheroids viability
protocol: Anticancer human tumor 648629-189-R-J1-PDC cell line growth inhibition [CLK];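 also: drug exposure lasted seven days before viability readout; 100% = DMSO vehicle control wells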
measurementContext: second compound 10 µM; first compound 10 µM; stronger effect = lower value
Provide only the numeric value, understood in %.

# lookup: viability, T/C of CC(Nc1ccc2c(c1)OCCn1cc(N3C(=O)OCC3C(F)F)nc1-2)C(N)=O (centres undefined) + CN1CCN(c2cc(C(=O)Nc3cc4cc(-c5cnn(C)c5)ccc4cn3)ccn2)CC1
0.2

What value of measured viability, T/C is listed for COC1C=CCC(C)C(C)S(=O)(=O)NC(=O)c2ccc3c(c2)N(CC2CCC21)CC1(CCCc2cc(Cl)ccc21)CO3 (centres undefined) + CNC(=O)c1ccc(Nc2nc(OC3CCCC3)c3c(-c4ccc5nc(C)oc5c4)c[nH]c3n2)c(OC)c1 ?
3.81

I would be grateful if you could share the reported viability, T/C for CC1(C)CCC(CN2CCN(c3ccc(C(=O)NS(=O)(=O)c4ccc(NCC5CCOCC5)c([N+](=O)[O-])c4)c(Oc4cnc5[nH]ccc5c4)c3)CC2)=C(c2ccc(Cl)cc2)C1 + CN1CCN(c2cc(C(=O)Nc3cc4cc(-c5cnn(C)c5)ccc4cn3)ccn2)CC1 .
0.16

Any idea what viability, T/C was measured for COc1cccc2c1C(=O)c1c(O)c3c(c(O)c1C2=O)CC(O)(C(=O)CO)CC3OC1CC(N)C(O)C(C)O1 (centres undefined) + CNC(=O)c1ccc(Nc2nc(OC3CCCC3)c3c(-c4ccc5nc(C)oc5c4)c[nH]c3n2)c(OC)c1 ?
3.42

====

System: 648629-189-R-J1-PDC complex spheroids viability
protocol: Anticancer human tumor 648629-189-R-J1-PDC cell line growth inhibition [CLK];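 also: drug exposure lasted seven days before viability readout; 100% = DMSO vehicle control wells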
measurementContext: second compound 0.1 µM; first compound 10 µM; stronger effect = lower value
quantityKind: viability, T/C

Quick one: viability, T/C of CC(CO)NC(=O)c1cc(-c2ccc(Cl)cc2)nn(-c2cnn(C)c2)c1=O (stereo not given) + CN1CCN(c2cc(C(=O)Nc3cc4cc(-c5cnn(C)c5)ccc4cn3)ccn2)CC1 ?
84.7%

Request the reported viability, T/C associated with CC1COCCN1c1cc(C2(S(C)(=N)=O)CC2)nc(-c2ccnc3[nH]ccc23)n1 (stereo not given) + CN1CCN(c2cc(C(=O)Nc3cc4cc(-c5cnn(C)c5)ccc4cn3)ccn2)CC1
26.5%

# input molecule: O=c1[nH]cc(F)c(=O)[nH]1 + CNC(=O)c1ccc(Nc2nc(OC3CCCC3)c3c(-c4ccc5nc(C)oc5c4)c[nH]c3n2)c(OC)c1 ; wanted: its viability, T/C
22.9%

Given the molecule O=c1[nH]cc(F)c(=O)[nH]1 + CN1CCN(c2cc(C(=O)Nc3cc4cc(-c5cnn(C)c5)ccc4cn3)ccn2)CC1 , what is its reported viability, T/C?
21.9%

Quick one: viability, T/C of COc1ccc([C@@H](O)c2cc(-c3ncnc4cc(N5CCOCC5)ccc34)c(F)cc2Cl)nn1 + CNC(=O)c1ccc(Nc2nc(OC3CCCC3)c3c(-c4ccc5nc(C)oc5c4)c[nH]c3n2)c(OC)c1 ?
47%

I would be grateful if you could share the reported viability, T/C for O=C(c1cc(Cc2n[nH]c(=O)c3ccccc23)ccc1F)N1CCN(C(=O)C2CC2)CC1 + CNC(=O)c1ccc(Nc2nc(OC3CCCC3)c3c(-c4ccc5nc(C)oc5c4)c[nH]c3n2)c(OC)c1 .
70.8%

// returns reported viability, T/C for input CC(=O)O[C@H]1C(=O)[C@@]2(C)[C@H]([C@H](OC(=O)c3ccccc3)[C@]3(O)C[C@H](OC(=O)[C@H](O)[C@@H](NC(=O)c4ccccc4)c4ccccc4)C(C)=C1C3(C)C)[C@]1(OC(C)=O)CO[C@@H]1C[C@@H]2O + CN1CCN(c2cc(C(=O)Nc3cc4cc(-c5cnn(C)c5)ccc4cn3)ccn2)CC1
9.47%

So what's the measured viability, T/C for this one? CC1(C)CCC(CN2CCN(c3ccc(C(=O)NS(=O)(=O)c4ccc(NCC5CCOCC5)c([N+](=O)[O-])c4)c(Oc4cnc5[nH]ccc5c4)c3)CC2)=C(c2ccc(Cl)cc2)C1 + CNC(=O)c1ccc(Nc2nc(OC3CCCC3)c3c(-c4ccc5nc(C)oc5c4)c[nH]c3n2)c(OC)c1
100%

Bench note: what viability, T/C did COC1C=CCC(C)C(C)S(=O)(=O)NC(=O)c2ccc3c(c2)N(CC2CCC21)CC1(CCCc2cc(Cl)ccc21)CO3 (stereo not given) + CNC(=O)c1ccc(Nc2nc(OC3CCCC3)c3c(-c4ccc5nc(C)oc5c4)c[nH]c3n2)c(OC)c1 show?
4.69%

May I ask what viability, T/C has been recorded for Nc1ccn(C2OC(CO)C(O)C2(F)F)c(=O)n1 (stereo not given) + CN1CCN(c2cc(C(=O)Nc3cc4cc(-c5cnn(C)c5)ccc4cn3)ccn2)CC1 ?
3.3%

====

System: 648629-189-R-J1-PDC complex spheroids viability
protocol: Anticancer human tumor 648629-189-R-J1-PDC cell line growth inhibition [CLK];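 also: drug exposure lasted seven days before viability readout; 100% = DMSO vehicle control wells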
measurementContext: second compound 3.16 µM; first compound 0.1 µM; stronger effect = lower value
Source text: A high-throughput screen of multi-cell type tumor spheroids was designed to identify active combinations of […] and targeted small molecules. Complex spheroids include a stromal component modeled by human endothelial cells (HUVEC) and fibroblasts modeled by human mesenchymal stem cells (MSCs). […] Compounds. […] If the clinical Cmax for an agent had not been determined, the highest concentration tested was 10 microM. […]
quantityKind: viability, T/C (%)
Reply with just the number (in %).

Entry under review: COc1cccc2c1C(=O)c1c(O)c3c(c(O)c1C2=O)CC(O)(C(=O)CO)CC3OC1CC(N)C(O)C(C)O1 (centres undefined) + CN1CCN(c2cc(C(=O)Nc3cc4cc(-c5cnn(C)c5)ccc4cn3)ccn2)CC1 . Reported viability, T/C?
0.1

Need viability, T/C of C=CC(=O)N1CCN(c2nc(=O)n(-c3c(C)ccnc3C(C)C)c3nc(-c4c(O)cccc4F)c(F)cc23)C(C)C1 (centres undefined) + CN1CCN(c2cc(C(=O)Nc3cc4cc(-c5cnn(C)c5)ccc4cn3)ccn2)CC1 , thanks.
0.17

GET /values?readout=viability, T/C&item= CC(=O)O[C@H]1C(=O)[C@@]2(C)[C@H]([C@H](OC(=O)c3ccccc3)[C@]3(O)C[C@H](OC(=O)[C@H](O)[C@@H](NC(=O)c4ccccc4)c4ccccc4)C(C)=C1C3(C)C)[C@]1(OC(C)=O)CO[C@@H]1C[C@@H]2O + CNC(=O)c1ccc(Nc2nc(OC3CCCC3)c3c(-c4ccc5nc(C)oc5c4)c[nH]c3n2)c(OC)c1
47.7

Query: viability, T/C; subject: C#Cc1c(F)ccc2cc(O)cc(-c3ncc4c(N5CC6CCC(C5)N6)nc(OCC56CCCN5CC(F)C6)nc4c3F)c12 (centres undefined) + CNC(=O)c1ccc(Nc2nc(OC3CCCC3)c3c(-c4ccc5nc(C)oc5c4)c[nH]c3n2)c(OC)c1
17.6
